System: CHO
protocolDetails: The sensitizing capacity for colchicine treatment of parental (PAR)CHO cells at concentration 1.0 (mg/L)
Type: functional, Cricetulus griseus
outcomeMeasure: Activity
Number only, please.

Sample records with Activity:
structureNotation	assayedSystem	Activity
CC[C@@H](C)[C@H]1C(=O)NCC(=O)N(C)[C@@H](C(C)C)C(=O)N[C@@H](Cc2ccc(OC)cc2)C(=O)O[C@@H](C)C(=O)N2CCCC[C@H]2C(=O)N(C)[C@@H](C(C)C)C(=O)N[C@@H](C(C)C)C(=O)N(C)[C@H](CC(=O)NCCC(C)C)C(=O)N(C)[C@@H]([C@@H](C)CC)C(=O)N1C	CHO	8.6
C=CCOc1ccc(C[C@@H]2NC(=O)[C@H](C(C)C)N(C)C(=O)CNC(=O)[C@H]([C@@H](C)CC)N(C)C(=O)[C@H]([C@@H](C)CC)N(C)C(=O)[C@H](CC(=O)OC(C)(C)C)N(C)C(=O)[C@H](C(C)C)NC(=O)[C@H](C(C)C)N(C)C(=O)[C@@H]3CCCCN3C(=O)[C@@H](C)OC2=O)cc1	CHO	11

Proceed to the following item.
Q) Consider the compound "C=CCNC(=O)C[C@@H]1C(=O)N(C)[C@@H]([C@@H](C)CC)C(=O)N(C)[C@@H]([C@H](C)CC)C(=O)NCC(=O)N(C)[C@@H](C(C)C)C(=O)N[C@@H](Cc2ccc(OC)cc2)C(=O)O[C@H](C)C(=O)N2CCCC[C@H]2C(=O)N(C)[C@@H](C(C)C)C(=O)N[C@@H](C(C)C)C(=O)N1C" and give its recorded Activity.
A) 9.3

Data origin: ChEMBL document CHEMBL1127553
